Values compiled from the supplement of paper PMC5844555.

test system: PHOX2B; test: 3' UTR reporter interaction score (median-centred robust z-score of log2 firefly/Renilla activity); higher = less repression of the 3' UTR reporter; details: HEK293T; 48 h
Cut-off -0.5 on 3' UTR reporter interaction score, inclusive. At or above means label 1; below means label 0.

The following sequences have reported results that may help.
| sequenceChain | testSystem | className |
| --- | --- | --- |
| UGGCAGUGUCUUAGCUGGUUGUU | PHOX2B | label 0 |
| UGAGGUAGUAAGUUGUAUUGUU | PHOX2B | label 1 |
| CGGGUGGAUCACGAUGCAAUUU | PHOX2B | label 0 |
| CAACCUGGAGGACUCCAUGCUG | PHOX2B | label 0 |
| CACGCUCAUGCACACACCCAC | PHOX2B | label 0 |
| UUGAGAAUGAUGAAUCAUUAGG | PHOX2B | label 1 |

In plain terms: is recorded 3' UTR reporter interaction score at least -0.5 for `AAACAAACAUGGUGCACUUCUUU` ? label 1

----------
Measured 3' UTR reporter interaction score, listed per entry for reference.
tested on: MYC; experiment: 3' UTR reporter interaction score (median-centred robust z-score of log2 firefly/Renilla activity); higher = less repression of the 3' UTR reporter; details: HEK293T; 48 h
// response body must contain only the number

# returns recorded 3' UTR reporter interaction score (system: MYC) for `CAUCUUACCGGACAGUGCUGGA` -0.0291

# returns recorded 3' UTR reporter interaction score (system: MYC) for `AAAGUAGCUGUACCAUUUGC` -0.314

# returns recorded 3' UTR reporter interaction score (system: MYC) for `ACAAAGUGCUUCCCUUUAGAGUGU` -0.0807

# returns recorded 3' UTR reporter interaction score (system: MYC) for `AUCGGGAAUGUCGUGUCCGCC` -1.57

----------
system: MYB; assay: 3' UTR reporter interaction score (median-centred robust z-score of log2 firefly/Renilla activity); higher = less repression of the 3' UTR reporter; conditions: HEK293T; 48 h
Measured 3' UTR reporter interaction score, listed per entry for reference.
// response body must contain only the number

Answered examples (10):
| sequenceChain | testSystem | 3' UTR reporter interaction score |
| --- | --- | --- |
| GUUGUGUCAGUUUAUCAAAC | MYB | 0.442 |
| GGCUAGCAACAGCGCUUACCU | MYB | -0.249 |
| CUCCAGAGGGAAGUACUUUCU | MYB | 1.53 |
| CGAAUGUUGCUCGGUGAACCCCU | MYB | 0.287 |
| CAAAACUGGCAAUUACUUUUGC | MYB | -1.52 |
| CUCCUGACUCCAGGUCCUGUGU | MYB | 0.427 |
| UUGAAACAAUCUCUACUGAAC | MYB | -0.218 |
| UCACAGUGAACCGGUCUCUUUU | MYB | 0.662 |
| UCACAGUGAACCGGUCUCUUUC | MYB | -1.23 |
| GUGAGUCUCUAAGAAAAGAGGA | MYB | -1.86 |

# returns recorded 3' UTR reporter interaction score (system: MYB) for `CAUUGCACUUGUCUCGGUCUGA` -0.142

# returns recorded 3' UTR reporter interaction score (system: MYB) for `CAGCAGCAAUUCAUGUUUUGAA` -2.05

# returns recorded 3' UTR reporter interaction score (system: MYB) for `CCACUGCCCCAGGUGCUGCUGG` 0
